- assayed.system: GLI1-ZFD (Homo sapiens)
- Construct: GLI1-ZFD Expression and Purification; made in house
- Sequence (P08151 234-388 limits assumed): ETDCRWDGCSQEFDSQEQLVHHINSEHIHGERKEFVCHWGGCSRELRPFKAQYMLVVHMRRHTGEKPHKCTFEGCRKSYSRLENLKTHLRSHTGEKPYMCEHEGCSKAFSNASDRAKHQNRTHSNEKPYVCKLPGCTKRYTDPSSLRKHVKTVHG
- protocol.summary: Microscale thermophoresis (MST) binding to GLI1-ZFD
- experimental.parameters: Table 5, Ave ± SEM
pKd: −log10 of the molar value.
endpoint: pKd

Below, 2 compounds whose answers are already recorded.
[[record]]
compound = "CCN(CC)c1ccc(C(Nc2ccccn2)c2ccc3ccc(C)nc3c2OC)cc1 (stereo not drawn)"
reported = "< 3.90"

[[record]]
compound = "CCN(CC)c1ccc(C(Nc2ccccn2)c2ccccc2O)cc1 (stereo not drawn)"
reported = "< 3.90"


Would you kindly look at the next entry?
Entry CCN(CC)c1ccc(CNc2ccccn2)cc1 , system GLI1-ZFD (Homo sapiens): what pKd was measured?
< 3.90

---

- Tested on: GLI1 mRNA expression
- protocol.summary: RT-qPCR GLI1 mRNA expression in ASZ001 BCC cells
- Assay type: cell-based, mouse
- experimental.parameters: Table 2, mean ± SEM; read-out: GLI1 mRNA expression, IC50 ASZ001
- Protocol: ASZ001 and Sufu-KO cells were seeded in 96-well plates (10,000/well, 100 μL) and incubated overnight under growth conditions. On the second day, ‘growth’ media was removed and replaced by ‘assay’ media (100 μL). On the third day, cells were treated with a serial dilution of drugs or DMSO for 48 h. mRNA expression was determined through Taqman Fast Cells-to-CT Kit (#4399003) per the manufacturer's instructions. […]
pIC50: −log10 of the molar value.
Entries and their measured pIC50 follow.

[[record]]
compound = "Cc1ccc2ccc(C(Nc3ccccn3)c3ccc(Cl)c(Cl)c3)c(O)c2n1 (racemic) [Compound 11]"
assayed_system = "GLI1 mRNA expression"
reported = "< 5.00"

[[record]]
compound = "Cc1ccccc1C(Nc1ccccn1)c1ccc2cccnc2c1O (racemic) [Compound 9]"
assayed_system = "GLI1 mRNA expression"
reported = "< 5.00"


Would you kindly look at the next entry?
Entry CCOc1cc(C(Nc2cc(C)ccn2)c2ccc3cccnc3c2O)ccc1OC (racemic) [Compound 6] , system GLI1 mRNA expression: what pIC50 was measured?
< 5.00
